Biological target: Cholinesterase (Equus caballus, UniProt P81908)
Sequence (P81908 whole entry): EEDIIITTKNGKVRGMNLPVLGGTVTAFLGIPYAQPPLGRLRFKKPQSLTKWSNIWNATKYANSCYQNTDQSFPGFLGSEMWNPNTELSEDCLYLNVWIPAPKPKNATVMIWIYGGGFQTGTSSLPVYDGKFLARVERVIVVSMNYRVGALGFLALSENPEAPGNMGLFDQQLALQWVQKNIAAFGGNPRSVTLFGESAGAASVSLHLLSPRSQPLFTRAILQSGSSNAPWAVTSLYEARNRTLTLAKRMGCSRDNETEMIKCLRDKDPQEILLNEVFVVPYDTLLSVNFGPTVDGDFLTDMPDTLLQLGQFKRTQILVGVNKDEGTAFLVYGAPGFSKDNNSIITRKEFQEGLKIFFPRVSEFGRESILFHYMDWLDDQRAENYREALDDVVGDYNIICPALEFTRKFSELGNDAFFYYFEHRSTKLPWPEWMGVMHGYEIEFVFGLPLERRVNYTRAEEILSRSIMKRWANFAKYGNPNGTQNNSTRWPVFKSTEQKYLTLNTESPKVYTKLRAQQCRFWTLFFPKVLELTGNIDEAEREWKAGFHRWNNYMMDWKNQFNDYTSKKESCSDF
Assay: Inhibition of equine serum BChE using butyrylthiocholine as substrate preincubated for 20 mins followed by substrate addition and measured upto 5 mins by Ellman's method
pIC50: −log10 of the molar value.
Classification field: 1 (yes) = pIC50 at or over 5; 0 (no) = pIC50 under 5.

Consider the worked cases shown below.
1. Fc1ccc(CN2CCCc3[nH]c4ccccc4c3C2)cc1	1 (yes)
2. c1ccc2c3c([nH]c2c1)CCCNC3	0 (no)
3. Fc1ccc2[nH]c3c(c2c1)CN(Cc1ccccc1)CCC3	1 (yes)
4. CN1CCCc2[nH]c3ccccc3c2C1	0 (no)
5. Fc1ccc(CN2CCCc3[nH]c4ccc(F)cc4c3C2)cc1	1 (yes)
6. Cc1ccc2[nH]c3c(c2c1)CN(Cc1ccccc1)CCC3	1 (yes)

Okay, next one:
Problem: # check: pIC50 of Fc1ccc2[nH]c3c(c2c1)CCCN(Cc1ccccc1)C3 is greater than or equal to 5
Solution: 1 (yes)

----------
Test system: SH-SY5Y
Experiment: Neuroprotective activity against H2O2-induced oxidative stress in human SH-SY5Y cells assessed as reduction in ROS generation preincubated for 1 hr followed by DCFH-DA addition for 30 mins and subsequent co-treatment with compound and H2O2 for 30 min by fluorescence assay
Assay type: functional, cell-based
measured_quantity: IC50 (µM)
Form entry: value (µM) — number only.

Problem: Fill in reported IC50 for this entry: Cl.c1ccc(CCCCN2CCCc3[nH]c4ccccc4c3C2)cc1
Solution: 10.1
